molecular target: CNT1 (Homo sapiens, UniProt O00337); construct: expressed in transfected cells; host or cells: MDCKII (lentiviral transduction); experiment: CNT1-mediated uridine uptake in CNT1-MDCKII cells; type: cell-based; conditions: MDCKII cells, 1 µM uridine
Sequence (O00337 whole entry): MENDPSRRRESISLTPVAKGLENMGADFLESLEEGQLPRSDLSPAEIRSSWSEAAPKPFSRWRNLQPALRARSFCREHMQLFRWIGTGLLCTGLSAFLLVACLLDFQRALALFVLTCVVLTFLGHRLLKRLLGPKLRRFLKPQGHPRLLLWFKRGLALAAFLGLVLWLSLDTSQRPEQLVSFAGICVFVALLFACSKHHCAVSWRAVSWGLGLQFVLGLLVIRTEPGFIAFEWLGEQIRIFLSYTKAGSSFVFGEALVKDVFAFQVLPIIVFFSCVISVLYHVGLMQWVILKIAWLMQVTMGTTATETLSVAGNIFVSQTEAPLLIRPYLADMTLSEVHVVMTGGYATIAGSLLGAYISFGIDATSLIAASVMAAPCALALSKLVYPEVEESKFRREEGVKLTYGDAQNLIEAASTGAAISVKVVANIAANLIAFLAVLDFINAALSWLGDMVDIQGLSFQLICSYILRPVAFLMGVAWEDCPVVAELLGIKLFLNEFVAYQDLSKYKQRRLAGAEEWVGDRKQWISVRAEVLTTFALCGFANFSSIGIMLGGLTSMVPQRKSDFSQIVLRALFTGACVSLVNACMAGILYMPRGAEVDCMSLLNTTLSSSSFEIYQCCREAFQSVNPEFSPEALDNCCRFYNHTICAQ
Items are presented alongside their recorded IC50.
Numeric only. Scale: µM

> print(dat)
                  compound.structure.string  measurement.label  unit.of.measure  number
1  O=c1nc(NO)ccn1[C@@H]1O[C@H](CO)[C@@H](O)[C@H]1O               IC50               µM    18.8

# input for lookup
Documented IC50 of CC(C)C(=O)OC[C@H]1O[C@@H](n2ccc(NO)nc2=O)[C@H](O)[C@@H]1O : 84.9

* * *

target: UniProtKB Q9NPD5; test: OATP1B3 uptake assay (pyranine) in overexpressing A431 cells; conditions: read-out: estimated IC50, OATP1B3; pyranine substrate, A431 cells
pIC50: −log10 of the molar value.
measurement label: pIC50

Documented pIC50 of O=c1nc(NO)ccn1[C@@H]1O[C@H](CO)[C@@H](O)[C@H]1O : < 3.70

* * *

biological target: OATP1B3 (Homo sapiens, UniProt Q9NPD5); test: OATP1B3 uptake assay (pyranine) in overexpressing A431 cells
Sequence (Q9NPD5 whole entry): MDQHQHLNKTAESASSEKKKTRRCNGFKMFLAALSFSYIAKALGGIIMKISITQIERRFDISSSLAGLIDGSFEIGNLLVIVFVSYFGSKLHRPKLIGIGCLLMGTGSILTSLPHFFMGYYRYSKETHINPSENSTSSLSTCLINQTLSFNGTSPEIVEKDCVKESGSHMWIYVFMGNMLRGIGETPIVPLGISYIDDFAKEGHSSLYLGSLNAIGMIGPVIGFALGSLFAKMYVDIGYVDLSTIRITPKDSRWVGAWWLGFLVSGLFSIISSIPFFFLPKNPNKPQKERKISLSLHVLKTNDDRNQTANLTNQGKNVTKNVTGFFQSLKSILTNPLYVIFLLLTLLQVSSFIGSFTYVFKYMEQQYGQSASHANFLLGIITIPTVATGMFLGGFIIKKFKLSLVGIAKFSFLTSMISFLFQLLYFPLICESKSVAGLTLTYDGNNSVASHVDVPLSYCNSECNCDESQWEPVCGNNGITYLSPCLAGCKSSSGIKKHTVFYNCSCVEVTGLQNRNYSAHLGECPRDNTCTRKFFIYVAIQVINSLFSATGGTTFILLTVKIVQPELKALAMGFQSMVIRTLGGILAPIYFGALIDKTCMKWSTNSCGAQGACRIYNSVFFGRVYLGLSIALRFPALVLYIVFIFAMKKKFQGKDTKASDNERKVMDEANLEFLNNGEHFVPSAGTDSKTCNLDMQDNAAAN
measurement label: IC50

Documented IC50 of CC(C)C(=O)OC[C@H]1O[C@@H](n2ccc(NO)nc2=O)[C@H](O)[C@@H]1O : > 200 µM

* * *

Molecular target: CNT2 (Homo sapiens, UniProt O43868)
Sequence (O43868 1-658): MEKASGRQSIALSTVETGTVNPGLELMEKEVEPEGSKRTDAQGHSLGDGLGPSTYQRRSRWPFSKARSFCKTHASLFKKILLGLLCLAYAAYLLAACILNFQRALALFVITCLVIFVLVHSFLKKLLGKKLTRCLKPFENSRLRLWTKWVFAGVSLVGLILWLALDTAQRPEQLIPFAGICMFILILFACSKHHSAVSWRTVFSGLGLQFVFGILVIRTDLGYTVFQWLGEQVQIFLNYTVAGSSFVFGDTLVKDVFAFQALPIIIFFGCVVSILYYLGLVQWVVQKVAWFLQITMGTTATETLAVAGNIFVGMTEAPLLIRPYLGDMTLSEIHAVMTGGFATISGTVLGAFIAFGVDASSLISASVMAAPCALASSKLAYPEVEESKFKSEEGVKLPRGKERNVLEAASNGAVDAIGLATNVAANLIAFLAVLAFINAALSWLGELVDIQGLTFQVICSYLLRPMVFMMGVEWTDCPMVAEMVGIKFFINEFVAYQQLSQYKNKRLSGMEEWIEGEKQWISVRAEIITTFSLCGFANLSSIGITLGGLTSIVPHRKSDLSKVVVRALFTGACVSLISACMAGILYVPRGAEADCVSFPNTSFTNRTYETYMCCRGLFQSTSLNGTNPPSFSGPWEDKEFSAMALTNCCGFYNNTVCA
Test: CNT2-mediated uridine uptake in CNT2-MDCKII cells
Details: 1 µM uridine
Protocol: ENT and CNT transporter interactions were investigated in transporter-overexpressing cell lines. Madin-Darby Canine Kidney II (MDCKII) cell lines overexpressing the human uptake transporters CNT1, CNT2, ENT1, and ENT2 were generated via lentiviral transduction. […] To determine the amounts of accumulated radiolabeled substrates, cell lysates mixed with a liquid scintillation cocktail were measured with a MicroBeta2 microplate counter (PerkinElmer, Singapore). […]
measurement label: pIC50
The meaning of pIC50 here: minus log10 of the concentration in molar units.

Documented pIC50 of O=c1nc(NO)ccn1[C@@H]1O[C@H](CO)[C@@H](O)[C@H]1O [EIDD-1931] : 4.99
